Test system: EfPiwi piRISC loaded with L1MC piRNA (26 nt)
Test: pre-steady-state target cleavage rate (min^-1); auxiliary factor: 500 nM Ephydatia muelleri Gtsf1; guide: L1MC piRNA 5'p-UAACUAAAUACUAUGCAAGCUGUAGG; MIWI and MILI are mouse PIWI proteins and EfPiwi is from a freshwater sponge; tags in brackets are library labels; higher = faster piRNA-guided slicing of the target
Returns one of criterion met or criterion not met; criterion met when pre-steady-state target cleavage rate is >= 0.006.

Prompt line: Please indicate if the recorded pre-steady-state target cleavage rate for UCCUGCUACAGCUUGCUUAGUUUUUAGUUA meets or exceeds 0.006.
Response line: criterion not met

Prompt line: Please indicate if the recorded pre-steady-state target cleavage rate for UCCUGGUACAGCUCUGCAUAGUAUUUAGUUA meets or exceeds 0.006.
Response line: criterion met

Prompt line: Please indicate if the recorded pre-steady-state target cleavage rate for UCCUGGUACAGCUUGCAUAGAAUUAAGUUA meets or exceeds 0.006.
Response line: criterion not met

Prompt line: Please indicate if the recorded pre-steady-state target cleavage rate for UCCUGCUACAGCUUGCAUACUAUUUAGUUA meets or exceeds 0.006.
Response line: criterion met

Source: the supplement of paper PMC10338343
